- tested target: KMT9 (Homo sapiens)
- Sequence (Q9Y5N5 1-214): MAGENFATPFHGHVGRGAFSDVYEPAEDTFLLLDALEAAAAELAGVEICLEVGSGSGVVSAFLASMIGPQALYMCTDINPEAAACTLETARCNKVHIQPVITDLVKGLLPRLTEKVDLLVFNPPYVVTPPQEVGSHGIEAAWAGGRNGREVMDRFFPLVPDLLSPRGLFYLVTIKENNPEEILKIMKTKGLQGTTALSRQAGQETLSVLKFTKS
- Sequence (Q9UI30 1-120 isoform Q9UI30-2 partner): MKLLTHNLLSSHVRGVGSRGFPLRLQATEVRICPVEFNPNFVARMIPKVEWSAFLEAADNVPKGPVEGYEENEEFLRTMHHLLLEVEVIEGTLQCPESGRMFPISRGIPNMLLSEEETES
- measurement protocol: Microscale thermophoresis (MST) KMT9 binding
- conditions used: His-tag labelled KMT9 20 nM; read-out: MST (Kd)
# Lookup of reported Kd keyed by entry

For orientation, consider the following solved cases.
| compound | Kd |
| --- | --- |
| CN1CCC[C@H]([C@H]2C[C@@H](n3cc(-c4nc(Cc5ccccc5)cs4)c4c(N)nc(Cl)nc43)[C@H](O)[C@@H]2O)C1 [Compound 597R] | ≤ 10 nM |
| CNc1ncnc2c1ccn2[C@@H]1C[C@H](c2ccc(O)cc2)[C@@H](O)[C@H]1O | > 1000 nM |
| NCCc1cccc([C@H]2C[C@@H](n3ccc4c(N)ncnc43)[C@H](O)[C@@H]2O)c1 | > 1000 nM |
| O[C@@H]1[C@H](O)C(CNCCCNCCc2ccc(F)cc2)C[C@H]1n1cc(-c2cccs2)c2cnc(Cl)nc21 (mixture of isomers) | ≤ 10 nM |
| Nc1nc(Cl)nc2c1c(-c1nc(Cc3ccccc3)cs1)cn2[C@@H]1C[C@H](C2CCN(CCF)CC2)[C@@H](O)[C@H]1O | ≤ 10 nM |

(Q) Look up Kd: Nc1nc(Cl)nc2c1c(-c1ccn(S(=O)(=O)c3ccccc3)n1)cn2[C@@H]1C[C@H](C2CCN(CCc3ccccc3)CC2)[C@@H](O)[C@H]1O
(A) ≤ 10 nM

(Q) Looking for the measured Kd of COc1cc(OC)cc([C@H]2C[C@@H](n3ccc4c(N)nc(Cl)nc43)[C@H](O)[C@@H]2O)c1 , can you help?
(A) 10 to 100 nM

* * *

- tested target: KMT9 (Homo sapiens, UniProt Q9Y5N5)
- measurement protocol: KMT9 thermal shift assay (SyproOrange)
- Type: binding
- conditions used: 500 µM compound, 2 μM KMT9; read-out: Thermal shift (ΔTm)
metric: ΔTm at 500 µM

Answered examples (3):
| substance smiles | ΔTm at 500 µM |
| --- | --- |
| Nc1nc(Cl)nc2c1c(-c1nc(Cc3ccccc3)cs1)cn2[C@@H]1C[C@H](C2CCN(Cc3ccn[nH]3)CC2)[C@@H](O)[C@H]1O | 15 to 20 °C |
| Nc1nc(Cl)nc2c1ccn2[C@@H]1C[C@H](c2ccc(=O)[nH]c2)[C@@H](O)[C@H]1O | ≤ 10 °C |
| CNc1nc(Cl)nc2c1ccn2[C@@H]1C[C@H](c2cn[nH]c2)[C@@H](O)[C@H]1O | ≤ 10 °C |

// switching to the query compound
(Q) Identify the measured ΔTm at 500 µM of COc1cc(CN)cc([C@H]2C[C@@H](n3ccc4c(N)nc(Cl)nc43)[C@H](O)[C@@H]2O)c1 for KMT9 (Homo sapiens, UniProt Q9Y5N5).
(A) 15 to 20 °C
